Reference source for all entries: patent EP4786492A1

# subject_of_test: DLL3 endogenously expressed on NCI-H82 cells (UniProt Q9NYJ7)
# Sequence (Q9NYJ7 27-618): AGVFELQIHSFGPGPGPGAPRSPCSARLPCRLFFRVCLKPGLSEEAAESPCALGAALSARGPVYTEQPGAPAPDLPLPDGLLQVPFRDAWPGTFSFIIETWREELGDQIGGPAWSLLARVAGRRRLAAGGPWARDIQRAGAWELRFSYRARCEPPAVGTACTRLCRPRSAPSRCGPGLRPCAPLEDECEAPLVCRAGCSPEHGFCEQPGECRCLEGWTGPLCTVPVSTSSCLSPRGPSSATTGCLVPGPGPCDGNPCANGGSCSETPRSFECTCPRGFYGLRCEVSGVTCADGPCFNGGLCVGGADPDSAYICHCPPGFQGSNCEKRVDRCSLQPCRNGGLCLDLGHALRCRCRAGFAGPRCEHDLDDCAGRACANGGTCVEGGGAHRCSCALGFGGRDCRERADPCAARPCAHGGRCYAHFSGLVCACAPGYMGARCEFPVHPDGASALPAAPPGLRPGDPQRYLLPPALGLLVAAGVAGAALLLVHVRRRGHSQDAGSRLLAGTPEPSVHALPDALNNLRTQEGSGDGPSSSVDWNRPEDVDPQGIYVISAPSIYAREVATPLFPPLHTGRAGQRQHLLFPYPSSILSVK
# test_details: FACS on NCI-H82 cells; antibody 0.8 nM
I'd be grateful if you could share measured MFI for these entries.
Numbers only.

Hab014VL1VH2-hFc (scFv, part only; not given: VL-VH linker and human IgG1 Fc, V domains shown, not shown: another chain or arm of the molecule; a dimerising Fc or GST; small tags and cut ends) VL: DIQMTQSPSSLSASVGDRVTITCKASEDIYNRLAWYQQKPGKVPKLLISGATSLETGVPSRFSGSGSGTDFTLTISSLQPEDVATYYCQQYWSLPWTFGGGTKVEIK VH: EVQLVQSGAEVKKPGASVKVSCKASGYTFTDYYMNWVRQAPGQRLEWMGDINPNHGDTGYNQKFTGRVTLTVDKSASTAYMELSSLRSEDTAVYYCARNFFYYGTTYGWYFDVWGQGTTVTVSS :: 580

I'm hoping you can list MFI for every binder here, please.
1. Hab015VL4VH6a-hFc (scFv, part only; not given: scFv linker and human IgG1 Fc, V domains shown, not shown: another chain or arm of the molecule; a dimerising Fc or GST; small tags and cut ends) VL: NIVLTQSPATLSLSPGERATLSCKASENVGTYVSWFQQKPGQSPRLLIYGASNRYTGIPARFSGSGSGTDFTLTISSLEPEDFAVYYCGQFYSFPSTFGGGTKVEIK VH: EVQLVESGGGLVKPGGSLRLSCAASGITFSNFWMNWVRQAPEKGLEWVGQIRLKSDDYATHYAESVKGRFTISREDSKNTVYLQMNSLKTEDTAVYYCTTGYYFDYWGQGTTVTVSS
2. Hab015VL5VH1b-hFc (scFv, part only; not given: VL-VH linker and human IgG1 Fc, V domains shown, not shown: another chain or arm of the molecule; a dimerising Fc or GST; small tags and cut ends) VL: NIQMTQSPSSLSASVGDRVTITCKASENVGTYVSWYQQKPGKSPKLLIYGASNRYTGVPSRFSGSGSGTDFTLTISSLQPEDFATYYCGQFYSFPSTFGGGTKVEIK VH: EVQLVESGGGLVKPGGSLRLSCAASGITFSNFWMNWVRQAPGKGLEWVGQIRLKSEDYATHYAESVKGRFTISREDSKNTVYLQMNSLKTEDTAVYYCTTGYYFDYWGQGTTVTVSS
3. Hab009VL1aVH1-hFc (Fc fusion, part only; not given: Linker and human IgG1 Fc, not shown: a dimerising Fc or GST) chain, part: DIVMTQSPLSLPVTPGEPASISCRASQTISDYLHWYLQKPGQSPQLLIKYASQSISGVPDRFSGSGSGSDFTLKISRVEAEDVGVYYCQQGHSFPLTFGQGTKLEIKEVQLVQSGAEVKKPGASVKVSCKASGYTFTSYWMHWVRQAPGQRLEWMGTIYPGNSDTRYNQKFKDRVTITADTSASTAYMELSSLRSEDTAVYYCTRSYDYGDLDYWGQGTTVTVSS
4. BI3 (antibody, human IgG1, kappa, V domains shown) VH: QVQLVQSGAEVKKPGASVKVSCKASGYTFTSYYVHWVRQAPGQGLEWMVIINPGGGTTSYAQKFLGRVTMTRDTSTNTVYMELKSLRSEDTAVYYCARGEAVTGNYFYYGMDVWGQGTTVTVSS VL: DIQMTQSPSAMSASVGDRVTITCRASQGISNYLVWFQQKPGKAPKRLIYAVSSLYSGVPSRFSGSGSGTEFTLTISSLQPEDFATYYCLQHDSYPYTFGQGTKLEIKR
5. Hab008L1H5-hFc (scFv, part only; not given: VL-VH linker and human IgG1 Fc, V domains shown, not shown: another chain or arm of the molecule; a dimerising Fc or GST; small tags and cut ends) VL: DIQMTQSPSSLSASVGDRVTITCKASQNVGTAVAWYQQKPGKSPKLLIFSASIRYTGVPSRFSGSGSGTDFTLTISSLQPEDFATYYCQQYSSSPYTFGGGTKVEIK VH: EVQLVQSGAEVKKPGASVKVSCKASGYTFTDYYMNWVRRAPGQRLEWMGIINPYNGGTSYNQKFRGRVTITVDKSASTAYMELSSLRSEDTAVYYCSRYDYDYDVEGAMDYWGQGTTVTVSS
6. Hab008L3H2a-hFc (scFv, part only; not given: VL-VH linker and human IgG1 Fc, V domains shown, not shown: another chain or arm of the molecule; a dimerising Fc or GST; small tags and cut ends) VL: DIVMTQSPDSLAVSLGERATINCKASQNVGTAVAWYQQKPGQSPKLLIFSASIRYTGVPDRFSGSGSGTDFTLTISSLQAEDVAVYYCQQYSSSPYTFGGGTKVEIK VH: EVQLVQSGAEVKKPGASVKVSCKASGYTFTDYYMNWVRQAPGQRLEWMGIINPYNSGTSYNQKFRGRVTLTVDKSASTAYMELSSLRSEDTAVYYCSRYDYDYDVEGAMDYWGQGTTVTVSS
7. mab009 scFv-hFc (Fc fusion, part only; not given: Linker and human IgG1 Fc, not shown: a dimerising Fc or GST) chain, part: DIVMTQSPATLSVTPGDRVSLSCRASQTISDYLHWYQQRSHESPRLLIKYASQSISGIPSRFSGSGSGSDFTLSINSVEPEDVGVYYCQNGHSFPLTFGAGTKLELKEVQLQQSGTVLARPGASVKMSCKTSGYTFTSYWMHWVKQSPGQGLEWIGTIYPGNSDTRYNQKFKDKAYVTAVTSASTAYMELSSLTNEESAVYYCTRSYDYGDLDYWGQGTTLTVSS

**A:**
913
711
722
518
245
135
674

Hi team, please reply with MFI for each item in this list.
1. Hab006VL4VH2-hFc (Fc fusion, part only; not given: Linker and human IgG1 Fc, not shown: a dimerising Fc or GST) chain, part: DIVMTQSPDSLAVSLGERATINCRATKSISKYLAWYQQKPGQTNKLLIFSGSTLQSGVPDRFSGSGSGTDFTLTISSLQAEDVAVYYCQQHHEYPYTFGGGTKVEIKEVQLVQSGAEVKKPGASVKVSCKASGYTFTSYWMHWVRQAPGQRLEWMGVIDPSDSLANYNQEFKGRVTLTVDTSASTAYMELSSLRSEDTAVYYCARDSTVVAPMDYWGQGTTVTVSS
2. Hab013VL2VH2a-hFc (scFv, part only; not given: scFv linker and human IgG1 Fc, V domains shown, not shown: another chain or arm of the molecule; a dimerising Fc or GST; small tags and cut ends) VL: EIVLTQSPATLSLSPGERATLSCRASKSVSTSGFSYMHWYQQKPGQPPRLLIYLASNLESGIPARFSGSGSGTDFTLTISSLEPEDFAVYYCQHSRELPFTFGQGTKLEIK VH: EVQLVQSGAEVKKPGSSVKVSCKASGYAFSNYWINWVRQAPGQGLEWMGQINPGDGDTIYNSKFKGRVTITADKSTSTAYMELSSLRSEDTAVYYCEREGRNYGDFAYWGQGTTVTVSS

**A:**
[429, 831]
